The following molecules are listed with their measured IC50 values.
tested on: P493-6 (myc "on") cells; test: Cell Proliferation Assay (72 hrs, Cell Titer Glo or Viacount FACS); assay type: cell-based; settings: read-out: Cell prolif P493 72h IC50; P493-6 cells, 72 h
MEASURED_PROPERTY: IC50

- O=C(Nc1nnc(CCCCc2nnc(NC(=O)C3COc4ccccc43)s2)s1)C1COc2ccccc21 (centres unmarked): 0.49 µM
- O=C(Cc1cccc(CN2CCNCC2)c1)Nc1nnc(CCCCc2nnc(NC(=O)Cc3cccc(CN4CCNCC4)c3)s2)s1: 56 µM

====

assay: Caco-2 Permeability Assay (bidirectional); type: in vitro ADME; settings: human, Caco-2, pH 7.4, Direction A→B; 1 μM, 120 minutes, pH 7.4
MEASURED_PROPERTY: recovery at 120 min, 1 μM (%)

• O=C(Cc1ccccc1)Nc1ccc(CCCCc2nnc(NC(=O)Cc3ccccc3)s2)nn1 = 89
• O=C(Cc1ccccc1Cl)Nc1ccc(CCCCc2nnc(NC(=O)Cc3ccccc3F)s2)nn1 = 41
• O=C(Cc1ccccc1)Nc1ccc(CCCCc2nnc(NC(=O)Cc3ccccn3)s2)nn1 = 117
• O=C(Cc1cccc(OC(F)(F)F)c1)Nc1ccc(CCCCc2nnc(NC(=O)Cc3ccccc3)s2)nn1 = 42
